Quick list: GI50 per entry.
Tested on: EKVX NSCLC
Experiment: NCI tumour cell line growth inhibition, 48 h

>  <COMPOUND>
O=C(/C=C/C12c3ccccc3C(c3ccccc31)C1C(=O)NC(=O)C12)c1ccc(Cl)cc1 (configuration not stated)

>  <GI50>
1.43 µM

$$$$
>  <COMPOUND>
Cc1ccc(-c2nc([P+](c3ccccc3)(c3ccccc3)c3ccccc3)c(Nc3ccccc3)o2)cc1

>  <GI50>
0.815 µM

$$$$
>  <COMPOUND>
O=c1oc2ccc(-c3ccc(F)cc3F)cc2c(=O)n1-c1ccc(Cl)c(C(F)(F)F)c1

>  <GI50>
2.18 µM

$$$$
>  <COMPOUND>
COc1ccc(/C=C\c2cc(OC)c(OC)c(OC)c2)cc1OCC(=O)Nc1ccc2nc(C)sc2c1

>  <GI50>
4.05 µM

$$$$
>  <COMPOUND>
COc1ccc(Nc2nc3cc(N)cc(N)c3nc2-c2ccccc2)cc1OC

>  <GI50>
25.6 µM

$$$$
>  <COMPOUND>
CCS(=O)(=O)c1ccc(OC)c(Nc2ncc(-c3ccccc3Cl)o2)c1

>  <GI50>
> 21.3 µM

$$$$

Field: next compound
Give its GI50 value. Item: COc1cc(C2C3=C(COC3=O)N(CCO)c3cc4c(cc32)OCO4)cc(OC)c1O (configuration not stated) 4.36 µM
